Biological target: Recombinant human his-tagged IGF 1R extracellular domain protein (human) (UniProt P08069)
Assay: SPR, captured IgG, IGF-1R ECD-his analyte, dissociation pH 6
QUANTITY MEASURED: kon (M⁻¹ s⁻¹)
Form entry: value (M⁻¹ s⁻¹) — number only.

| BINDER | UNITS LABEL | kon |
| --- | --- | --- |
| VRDN-02505 (antibody, V domains shown) VH: EVQLVQSGGGLVKPGGSLRLSCAASGFTFHSFAMHWVRQAPGKGLEWISVIDTRGATYYADSVKGRFTISRDNAKNSLYLQMNSLRAEDTAVYYCARLGNFYYGMDVWGQGTTVTVSS VL: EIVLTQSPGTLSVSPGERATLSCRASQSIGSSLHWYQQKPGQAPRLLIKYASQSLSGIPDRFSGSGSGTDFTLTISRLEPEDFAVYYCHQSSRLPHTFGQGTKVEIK | M⁻¹ s⁻¹ | 23700 |
| VRDN-02557 (antibody, V domains shown) VH: EVQLVQSGGGLVKPGGSLRLSCAASGFTFSSFAMHWVRQAPGKGLEWISVIDTRGATYYADSVKGRFTISRDNAKNSLYLQMNSLRAEDTAVYYCARLGNFYYGHDVWGQGTTVTVSS VL: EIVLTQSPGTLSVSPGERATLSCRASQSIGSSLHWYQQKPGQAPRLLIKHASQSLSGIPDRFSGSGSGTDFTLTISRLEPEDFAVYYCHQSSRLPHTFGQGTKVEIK | M⁻¹ s⁻¹ | 3.88e+06 |

Answer with reported kon of VRDN-02570 (antibody, V domains shown) VH: EVQLVQSGGGLVKPGGSLRLSCAASGFTFSSFHMHWVRQAPGKGLEWISVIDTRGATYYADSVKGRFTISRDNAKNSLYLQMNSLRAEDTAVYYCARLGNFYYGHDVWGQGTTVTVSS VL: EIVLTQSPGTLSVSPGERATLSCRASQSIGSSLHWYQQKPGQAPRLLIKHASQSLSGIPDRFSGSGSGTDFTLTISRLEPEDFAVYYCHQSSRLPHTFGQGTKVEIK 214000

Hey, just so you know, these numbers are from patent US20240343814A1.
